Biological target: JAK3 (Homo sapiens (Human))
Sequence (P52333 822-1111): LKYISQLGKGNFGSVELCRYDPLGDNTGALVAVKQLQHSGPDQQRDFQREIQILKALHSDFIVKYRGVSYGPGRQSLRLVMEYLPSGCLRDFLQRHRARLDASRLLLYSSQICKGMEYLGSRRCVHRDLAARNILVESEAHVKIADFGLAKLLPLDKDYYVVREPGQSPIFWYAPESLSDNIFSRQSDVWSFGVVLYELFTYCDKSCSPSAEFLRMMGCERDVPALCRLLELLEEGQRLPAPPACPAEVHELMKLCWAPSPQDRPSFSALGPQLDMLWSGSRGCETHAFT
Test: Jak Biochemical HTRF Assay (JAK3)
Settings: recombinant GST-tagged catalytic domain, [ATP] 2.9 μM
VALUE TYPE: IC50 (nM)

Here is how some compounds turned out for IC50.
>  <COMPOUND>
C=C(C)C(=O)Nc1cccc(-c2ncnc3[nH]cc(C(=O)OC)c23)c1 [Example 11-2]

>  <UNIT OF MEASURE>
nM

>  <IC50>
2

$$$$
>  <COMPOUND>
CCOC(=O)c1c[nH]c2ncnc(-c3ccc4cc[nH]c4c3)c12 [Example 1-83]

>  <UNIT OF MEASURE>
nM

>  <IC50>
9.7

$$$$
>  <COMPOUND>
C=C(C)C(=O)Nc1cccc(-c2ncnc3[nH]cc(C4=CCOCC4)c23)c1 [Example 21-5]

>  <UNIT OF MEASURE>
nM

>  <IC50>
5

$$$$
>  <COMPOUND>
C=C(C)C(=O)Nc1cc(-c2ncnc3[nH]cc(C(=O)OC)c23)ccc1F [Example 11-1]

>  <UNIT OF MEASURE>
nM

>  <IC50>
0.4

$$$$
>  <COMPOUND>
C=C(C)C(=O)Nc1cccc(-c2ncnc3[nH]cc(-c4ccccc4C)c23)c1 [Example 20-6]

>  <UNIT OF MEASURE>
nM

>  <IC50>
5.2

$$$$
>  <COMPOUND>
CCOC(=O)c1c[nH]c2ncnc(-c3cccc(NC(=O)/C=C/COC)c3)c12 [Example 5-8]

>  <UNIT OF MEASURE>
nM

>  <IC50>
2.1

$$$$
>  <COMPOUND>
CCOC(=O)c1c[nH]c2ncnc(-c3cccc(O)c3)c12 [Example 1-45]

>  <UNIT OF MEASURE>
nM

>  <IC50>
5.6

$$$$
>  <COMPOUND>
CCOC(=O)c1c[nH]c2ncnc(-c3cccc(NC(=O)/C=C/c4ccncc4)c3)c12 [Example 5-17]

>  <UNIT OF MEASURE>
nM

>  <IC50>
2

$$$$
>  <COMPOUND>
C=CC(=O)Nc1cccc(-c2ncnc3[nH]cc(C(=O)OCC)c23)c1 [Example 4-5]

>  <UNIT OF MEASURE>
nM

>  <IC50>
0.04

$$$$
>  <COMPOUND>
C=C(C)C(=O)Nc1cc(-c2ncnc3[nH]cc(C(=O)OCC)c23)c[nH]c1=O [Example 4-33]

>  <UNIT OF MEASURE>
nM

>  <IC50>
0.47

$$$$

[a] COc1ccccc1-c1c[nH]c2ncnc(-c3ccccc3)c12 [Example 33-1]
[b] CCOC(=O)c1c[nH]c2ncnc(-c3cccc(C)c3)c12 [Example 1-46]
[c] CCOC(=O)c1c[nH]c2ncnc(-c3ccc(N)cc3)c12 [Example 1-80]
[d] C=C(CNS(C)(=O)=O)C(=O)Nc1cccc(-c2ncnc3[nH]cc(C(=O)OCC)c23)c1 [Example 13-1]
[e] C=C(C)C(=O)Nc1cncc(-c2ncnc3[nH]cc(C(=O)OCC)c23)c1 [Example 4-3]
Q: Sort (5 compounds) by IC50: min first. Provide your answer as the labels ordered per the instruction.
Result: d, e, c, a, b

[A] CCOC(=O)c1c[nH]c2ncnc(-c3ccc4cn(C)nc4c3)c12 [Example 1-5]
[B] C=C(C)C(=O)Nc1cccc(-c2ncnc3[nH]cc(-c4cncs4)c23)c1 [Example 21-7]
[C] C=C(C)C(=O)Nc1cccc(-c2ncnc3[nH]cc(-c4cnc(C)s4)c23)c1 [Example 21-6]
Q: Sort (3 compounds) by IC50: min first. Provide your answer as the labels ordered per the instruction.
Result: B, A, C
(B: 1.8 nM, A: 7.2 nM, C: 10.3 nM)

[P] CCOC(=O)c1c[nH]c2ncnc(-c3ccc(OC)cc3)c12 [Example 1-15]
[Q] CCOC(=O)c1c[nH]c2ncnc(-c3cccc(NC(=O)/C=C/c4c[nH]c5ccccc45)c3)c12 [Example 5-19]
[R] C=C(Br)C(=O)Nc1cccc(-c2ncnc3[nH]cc(C(=O)OCC)c23)c1 [Example 5-5]
[S] C=C(C)C(=O)Nc1cccc(-c2ncnc3[nH]cc(-c4ccccc4F)c23)c1 [Example 20-3]
[T] CCOC(=O)c1c[nH]c2ncnc(-c3cccc(Cl)c3)c12 [Example 1-39]
Q: Reorder: IC50, max to min. Provide your answer as the labels ordered per the instruction.
Result: T, P, Q, S, R

[1] C=C(C)C(=O)Nc1cccc(-c2ncnc3[nH]cc(-c4ccc(C)cc4)c23)c1 [Example 20-7]
[2] C=C(C)C(=O)Nc1cccc(-c2ncnc3[nH]cc(-c4ccc(F)cc4)c23)c1 [Example 20-4]
[3] C=C(Cl)C(=O)Nc1cccc(-c2ncnc3[nH]cc(C(=O)OCC)c23)c1 [Example 5-6]
[4] C=C(CN1CCOCC1)C(=O)Nc1cccc(-c2ncnc3[nH]cc(C(=O)OCC)c23)c1 [Example 5-41]
Q: Reorder: IC50, max to min. Provide your answer as the labels ordered per the instruction.
Result: 1, 2, 4, 3
(1: 5.4 nM, 2: 1.5 nM, 4: 0.66 nM, 3: 0.22 nM)

[1] CCOC(=O)c1c[nH]c2ncnc(-c3ccc(-n4cccn4)cc3)c12 [Example 1-94]
[2] C=C(C)C(=O)Nc1cccc(-c2ncnc3[nH]cc(-c4cnco4)c23)c1 [Example 30]
Q: Of 1 and 2 , which shows the smaller IC50 value? To answer, give the label that identifies your chosen option.
Result: 2
